Form field: pEC50 (one value per entry).
Target: human TGR5 (h-TGR5) (Homo sapiens)
Construct: expressed in transfected cells
Sequence (Q8TDU6 whole entry): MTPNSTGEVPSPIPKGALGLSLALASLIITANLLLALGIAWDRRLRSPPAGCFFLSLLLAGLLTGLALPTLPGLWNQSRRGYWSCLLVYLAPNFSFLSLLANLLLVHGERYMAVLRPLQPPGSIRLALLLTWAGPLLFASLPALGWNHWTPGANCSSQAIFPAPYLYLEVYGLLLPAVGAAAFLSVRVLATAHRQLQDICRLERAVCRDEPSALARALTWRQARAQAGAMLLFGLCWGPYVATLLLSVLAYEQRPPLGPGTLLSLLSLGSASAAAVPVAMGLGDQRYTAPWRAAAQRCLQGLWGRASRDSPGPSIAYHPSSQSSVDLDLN
Assay: TGR5/CRE-Luciferiase Assay (HEK 293 hTGR5/CRE-Luc cells)
Type: cell-based
Details: h-TGR5 CRE-Luc EC50, Table 1; read-out: CRE-Luc (EC50)
pEC50: −log10 of the molar value.

[[record]]
molecule_smiles = "CC(=O)NS(=O)(=O)c1ccc(CSc2ncc(C(C)(C)c3ccc(Cl)c(Cl)c3)n2-c2ccc(F)cc2)c(Cl)c1"
target_or_system = "human TGR5 (h-TGR5) (Homo sapiens)"
measured_parameter = "pEC50"
val = "6.00 to 7.00"


query: Give pEC50 for COc1ccc(C(C)(C)c2cnc(CNCc3ccc(Cl)c(F)c3)n2-c2ccc(F)cc2)cc1OC
result: > 7.00

query: Query pEC50 for CC(C)(c1ccc(S(C)(=O)=O)cc1)c1cnc(SCc2ccc(S(=O)(=O)NC(=O)NN3CCCC3)cc2Cl)n1-c1ccc(F)cc1
result: 5.00 to 6.00
